- Test system: Herpes Simplex type 1 virus (HFEM strain)
- test.summary: plaque reduction assay in Vero cells infected with Herpes Simplex type 1 virus
- Type: cell-based
- details: Human alphaherpesvirus 1, 96 h; same PD50 expressed in µM; Vero cells, HSV-1 HFEM strain, 4 days at 37 C; read-out: PDD50 (the source's name)
endpoint.name: EC50

Input COCC(=O)OC[C@H]1O[C@@H](n2cc(/C=C/Br)c(=O)[nH]c2=O)C[C@@H]1OC(=O)COC [Example 28] . Output EC50: 0.36 µM

The recorded EC50 for entry CC(=O)OC(C)C(=O)OC[C@H]1O[C@@H](n2cc(/C=C/Br)c(=O)[nH]c2=O)C[C@@H]1O (stereo partly shown) [Example 10] equals 0.4 µM

According to the records, this compound CC(C)(Oc1ccc(Cl)cc1)C(=O)OCC(=O)OC[C@H]1O[C@@H](n2cc(/C=C/Br)c(=O)[nH]c2=O)C[C@@H]1OC(=O)COC(=O)C(C)(C)Oc1ccc(Cl)cc1 [Example 9] displays EC50 of 1.75 µM

Input COCC(=O)OC[C@H]1O[C@@H](n2cc(/C=C/Br)c(=O)[nH]c2=O)C[C@@H]1O [Example 27] . Output EC50: 0.3 µM

# EC50 of O=C(OC[C@H]1O[C@@H](n2cc(/C=C/Br)c(=O)[nH]c2=O)C[C@@H]1OC(=O)C(Cl)c1ccccc1)C(Cl)c1ccccc1 (stereo partly shown) [Example 22] = 0.53 µM

The recorded EC50 for entry O=C(CCl)OC[C@H]1O[C@@H](n2cc(/C=C/Br)c(=O)[nH]c2=O)C[C@@H]1O [Example 2] equals 0.29 µM

In plain terms, O=C(OC[C@H]1O[C@@H](n2cc(/C=C/Br)c(=O)[nH]c2=O)C[C@@H]1O)[C@H](O)c1ccccc1 [Example 29] has a documented EC50 of 0.47 µM

###

- test.summary: cytotoxicity (minimum toxic concentration) in the infected Vero cell cultures
- Assay type: cell-based, African Green Monkey
- details: monkey; minimum concentration of test compound which caused cytotoxicity; Vero cells, highest concentration tested 100 µg/ml; read-out: MTD
endpoint.name: MCC at 96 h

// recorded MCC at 96 h for CCCN(CCC)S(=O)(=O)c1ccc(C(=O)OCC(=O)OC[C@H]2O[C@@H](n3cc(/C=C/Br)c(=O)[nH]c3=O)C[C@@H]2O)cc1 : > 100 µg/mL

What the record says about CC(=O)OC(C)C(=O)OC[C@H]1O[C@@H](n2cc(/C=C/Br)c(=O)[nH]c2=O)C[C@@H]1O (stereo partly drawn) : MCC at 96 h is > 100 µg/mL

Please fill in: MCC at 96 h reported for O=C(OC[C@H]1O[C@@H](n2cc(/C=C/Br)c(=O)[nH]c2=O)C[C@@H]1OC(=O)C(Cl)c1ccccc1)C(Cl)c1ccccc1 (stereo partly drawn) = > 100 µg/mL

###

- System: Herpes Simplex type 1 virus (HFEM strain)
- test.summary: plaque reduction assay in Vero cells infected with Herpes Simplex type 1 virus
- Format: cell-based
- details: Human alphaherpesvirus 1, 96 h; same PD50 expressed in µM; Vero cells, HSV-1 HFEM strain, 4 days at 37 C; read-out: PDD50 (the source's name)
Give EC50 for every item shown.
Report the value in µM with no unit label.

Observed EC50, Herpes Simplex type 1 virus (HFEM strain), CC(C)C[C@H](O)C(=O)OC[C@H]1O[C@@H](n2cc(/C=C/Br)c(=O)[nH]c2=O)C[C@@H]1O : 0.34

# value of EC50, Herpes Simplex type 1 virus (HFEM strain), item CCCN(CCC)S(=O)(=O)c1ccc(C(=O)OCC(=O)OC[C@H]2O[C@@H](n3cc(/C=C/Br)c(=O)[nH]c3=O)C[C@@H]2O)cc1 = 0.37

Herpes Simplex type 1 virus (HFEM strain) EC50 of O=C(COc1ccccc1)OC[C@H]1O[C@@H](n2cc(/C=C/Br)c(=O)[nH]c2=O)C[C@@H]1O is 0.38

Entry O=C(COc1ccccc1)OC[C@H]1O[C@@H](n2cc(/C=C/Br)c(=O)[nH]c2=O)C[C@@H]1OC(=O)COc1ccccc1 , tested on Herpes Simplex type 1 virus (HFEM strain), has a reported EC50 of 0.95

Field EC50 (Herpes Simplex type 1 virus (HFEM strain)), entry O=C(OC[C@H]1O[C@@H](n2cc(/C=C/Br)c(=O)[nH]c2=O)C[C@@H]1OC(=O)[C@H](O)c1ccccc1)[C@H](O)c1ccccc1 : 1.1

The compound O=C(O[C@H]1C[C@H](n2cc(/C=C/Br)c(=O)[nH]c2=O)O[C@@H]1CO)C(Cl)c1ccccc1 (stereo partly drawn) on Herpes Simplex type 1 virus (HFEM strain): EC50 was 0.37
